Overview of reported IC50 across a group of molecules:
Molecular target: IKKε (Homo sapiens (Human), UniProt Q14164)
Sequence (Q14164 whole entry): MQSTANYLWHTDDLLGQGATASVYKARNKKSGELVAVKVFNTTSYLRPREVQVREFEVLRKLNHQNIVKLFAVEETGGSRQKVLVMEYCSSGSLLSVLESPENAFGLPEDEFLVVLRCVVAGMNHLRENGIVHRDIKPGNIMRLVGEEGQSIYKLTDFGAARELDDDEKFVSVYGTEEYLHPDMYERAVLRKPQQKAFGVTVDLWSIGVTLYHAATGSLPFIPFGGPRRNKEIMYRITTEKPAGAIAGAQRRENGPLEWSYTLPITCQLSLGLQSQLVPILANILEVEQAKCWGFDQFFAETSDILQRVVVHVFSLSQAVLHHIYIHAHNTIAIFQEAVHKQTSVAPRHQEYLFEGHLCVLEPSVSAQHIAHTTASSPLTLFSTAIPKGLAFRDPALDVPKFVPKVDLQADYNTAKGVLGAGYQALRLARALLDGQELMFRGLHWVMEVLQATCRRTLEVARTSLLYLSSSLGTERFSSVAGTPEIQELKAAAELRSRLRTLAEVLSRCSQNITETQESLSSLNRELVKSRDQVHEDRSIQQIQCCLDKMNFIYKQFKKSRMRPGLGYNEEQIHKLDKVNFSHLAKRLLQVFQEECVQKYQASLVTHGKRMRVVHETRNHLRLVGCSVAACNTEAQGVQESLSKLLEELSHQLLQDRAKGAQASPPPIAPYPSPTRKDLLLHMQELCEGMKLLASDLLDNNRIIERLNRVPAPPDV
Assay: Lanthascreen TR-FRET kinase inhibition assay, IKKε
Type: biochemical
Settings: 20 μM ATP (apparent Km), 2 nM kinase, 1 h

Examples with answers:
QUERY: For the molecule shown here, CN(CC1CCOC1)c1ncc(-c2ccnc(Nc3ccc(CN4CCOCC4)nc3)n2)cc1C#N (stereo not shown) [DMX-137] , give the reported IC50.
RESULT: < 1000 nM

QUERY: Also Cn1cc(Nc2nccc(-c3cnc(N[C@@H]4CCOC4)c(C#N)c3)n2)cn1 [DMX-116] ?
RESULT: < 1000 nM

QUERY: Also N#Cc1cc(-c2ccnc(Nc3ccc(CN4CCOCC4)nc3)n2)cnc1N1CCC2(COC2)C1 [DMX-92] ?
RESULT: < 30 nM

Continuing:
QUERY: For the molecule shown here, CN1CCC(NC(=O)c2cccc(Nc3nccc(-c4cnc(N5CCC(F)(F)C5)c(C#N)c4)n3)c2)CC1 [DMX-14] , give the reported IC50.
RESULT: < 100 nM

QUERY: Also N#Cc1cc(-c2ccnc(Nc3ccc(CN4CCOCC4)nc3)n2)cnc1N1CCC(CC(N)=O)C1 (stereo not shown) [DMX-158] ?
RESULT: < 100 nM

QUERY: Also N#Cc1cc(-c2ccnc(Nc3ccc(CN4CCOCC4)nc3)n2)cnc1NCC1CCOC1 (stereo not shown) [DMX-138] ?
RESULT: < 1000 nM

QUERY: Also CN(CCO)Cc1ccc(Nc2nccc(-c3cnc(N4CC[C@H](F)C4)c(C#N)c3)n2)cn1 [DMX-104] ?
RESULT: < 100 nM

* * *

Molecular target: IKKε (Homo sapiens (Human), UniProt Q14164)
Test: Lanthascreen TR-FRET kinase inhibition assay, IKKε
Assay type: biochemical
Settings: 20 μM ATP (apparent Km), 2 nM kinase, 1 h
Method: Compounds of the invention (synthesised as described below) were tested for activity against the IKKε and TBK-1 enzyme as follows: Inhibitions studies were performed using a time-resolved fluorescence-based Lanthascreen™ assay. Phosphorylation of a fluorescein-labelled substrate peptide is measured using terbium-labeled phosphospecific antibodies. Kinase inhibition assays (10 μL) were performed at 20° C. in 384-well plate format. […]
readoutType: IC50

QUERY: For the compound shown here, COCCNCc1ccc(Nc2nccc(-c3cnc(N4CC[C@H](F)C4)c(C#N)c3)n2)cn1 , give the reported IC50.
RESULT: < 100 nM

QUERY: Also N#Cc1cc(-c2ccnc(Nc3cccc(=O)[nH]3)n2)cnc1N1CC[C@H](F)C1 ?
RESULT: < 1000 nM

QUERY: Also N#Cc1nc(-c2ccnc(Nc3ccc(CN4CCOCC4)nc3)n2)ccc1N1CCC2(COC2)C1 ?
RESULT: < 15 nM

QUERY: Also N#Cc1cc(-c2ccnc(Nc3ccnc(N4CCOCC4)c3)n2)cnc1N1CC[C@H](F)C1 ?
RESULT: < 15 nM

QUERY: Also N#Cc1cc(-c2ccnc(Nc3cccc(C(=O)NC4CCNCC4)c3)n2)cnc1N1CC[C@H](F)C1 ?
RESULT: < 30 nM

QUERY: Also N#Cc1nc(-c2ccnc(Nc3ccc(CN4CCOCC4)nc3)n2)ccc1N1CCCOCC1 ?
RESULT: < 30 nM

QUERY: Also COCCNc1cc(Nc2ncc(F)c(-c3cnc(NC4CC4)c(C#N)c3)n2)ccn1 ?
RESULT: < 1000 nM

QUERY: Also COCCN(C)CC(=O)Nc1ccc(Nc2nccc(-c3cnc(N4CC[C@H](F)C4)c(C#N)c3)n2)cn1 ?
RESULT: < 30 nM

QUERY: Also CN(C(=O)CN1CCOCC1)c1ccc(Nc2nccc(-c3cnc(N4CC[C@H](F)C4)c(C#N)c3)n2)cn1 ?
RESULT: < 100 nM

QUERY: Also CC(Nc1ncc(-c2ccnc(Nc3ccc(CN4CCOCC4)nc3)n2)cc1C#N)C(N)=O (centres unmarked) ?
RESULT: < 100 nM

Continuing:
QUERY: For the compound shown here, COCCN(C)c1ccc(-c2ccnc(Nc3cnn(C)c3)n2)nc1C#N , give the reported IC50.
RESULT: < 1000 nM

QUERY: Also Cn1cc(Nc2nccc(-c3ccc(N4CCC(C(N)=O)CC4)c(C#N)n3)n2)cn1 ?
RESULT: < 100 nM

QUERY: Also Cn1cc(Nc2nccc(-c3cnc(N4CCC[C@@H]4C(N)=O)c(C#N)c3)n2)cn1 ?
RESULT: < 100 nM

QUERY: Also N#Cc1cc(-c2ccnc(Nc3ccc(CN4CCOCC4)nc3)n2)cnc1NC1CC1 ?
RESULT: < 1000 nM

QUERY: Also N#Cc1nc(-c2ccnc(Nc3ccc(N4CCOCC4)cc3)n2)ccc1N1CCCC1 ?
RESULT: < 15 nM

QUERY: Also N#Cc1nc(-c2ccnc(Nc3ccc(OCCN4CC[C@H](F)C4)nc3)n2)ccc1N1CC[C@H](O)C1 ?
RESULT: < 100 nM

QUERY: Also N#Cc1cc(-c2nc(Nc3ccnc(NC(=O)CN4CCOCC4)c3)ncc2F)cnc1NC1CC1 ?
RESULT: < 1000 nM
